# Experiment notes: Selectivity index, ratio of CC50 for African green monkey Vero cells to EC50 for Dengue virus serotype-2 infected in African green monkey Vero cells
# Type: toxicity, cell-based
# Measurement parameters: read-out: Ratio CC50/EC50
Measured selectivity ratio, listed per entry for reference.

{"Smiles data": "N=C(N)NCCC[C@H](NC(=O)c1cccs1)C(=O)N[C@@H](CCCCN)C(=O)N[C@@H](C(N)=O)c1ccc(OCc2ccc(Cl)c(Cl)c2)cc1", "selectivity ratio": "> 25"}

Now consider the entry below.
Find the recorded selectivity ratio belonging to `COc1cccc(COc2ccc([C@@H](NC(=O)[C@H](CCCCN)NC(=O)[C@H](CCCNC(=N)N)NC(=O)c3ccc(-c4cccs4)s3)C(N)=O)cc2)c1` and report it.
> 25
